- assay system: PSMA (Homo sapiens)
- Construct: Detection of endogenous PSMA expression in LNCaP and PC3 cells relative to β-actin expression by Western; host or cells: LNCaP human prostate carcinoma cells (monolayer, spheroids or Potter-Elvehjem homogenates)
- Sequence (Q04609 whole entry): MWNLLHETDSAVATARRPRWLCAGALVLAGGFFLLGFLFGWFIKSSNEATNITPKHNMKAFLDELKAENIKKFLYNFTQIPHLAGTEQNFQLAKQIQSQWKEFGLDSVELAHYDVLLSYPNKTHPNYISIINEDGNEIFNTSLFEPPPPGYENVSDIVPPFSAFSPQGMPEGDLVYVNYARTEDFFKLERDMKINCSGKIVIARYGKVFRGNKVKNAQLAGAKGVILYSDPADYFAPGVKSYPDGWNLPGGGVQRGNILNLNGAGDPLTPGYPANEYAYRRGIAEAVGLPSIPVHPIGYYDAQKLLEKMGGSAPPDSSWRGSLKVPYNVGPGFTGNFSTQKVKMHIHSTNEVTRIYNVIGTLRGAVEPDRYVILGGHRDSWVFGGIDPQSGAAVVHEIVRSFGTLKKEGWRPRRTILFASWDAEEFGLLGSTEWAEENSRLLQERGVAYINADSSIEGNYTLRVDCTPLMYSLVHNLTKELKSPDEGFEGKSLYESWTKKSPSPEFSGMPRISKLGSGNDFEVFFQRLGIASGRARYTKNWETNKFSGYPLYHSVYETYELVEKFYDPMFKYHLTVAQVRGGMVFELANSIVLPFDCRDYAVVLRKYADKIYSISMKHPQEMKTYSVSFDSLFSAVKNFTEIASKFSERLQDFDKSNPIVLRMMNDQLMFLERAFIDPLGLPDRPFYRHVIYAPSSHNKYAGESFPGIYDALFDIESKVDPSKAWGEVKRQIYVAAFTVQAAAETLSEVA
- procedure details: Saturation binding (surface-bound and internalized), LNCaP spheroids
- run parameters: Al^18F-labeled conjugate or [18F]PSMA-1007, acid-resistant fraction, read-out: Kd,int (internalization)
// reported pKd for each item listed
# reply with the number alone; pKd is -log10 of concentration in mol/L

molecule="O=C(O)CCC(NC(=O)NC(CCCCNC(=O)[C@@H](Cc1cccc2ccccc12)NC(=O)CCCCCn1cc(CN(CC(=O)O)[C@@H]2CCCC[C@H]2N(CC(=O)O)CC(=O)O)nn1)C(=O)O)C(=O)O (mixture of isomers)" assay_system="PSMA (Homo sapiens)" measured_property=pKd data_value=7.80
molecule="O=C(O)CCC(NC(=O)NC(CCCCNC(=O)[C@H](Cc1ccc2ccccc2c1)NC(=O)[C@H]1CC[C@H](CNC(=O)CCCCn2cc(CN(CC(=O)O)[C@@H]3CCCC[C@H]3N(CC(=O)O)CC(=O)O)nn2)CC1)C(=O)O)C(=O)O (mixture of isomers)" assay_system="PSMA (Homo sapiens)" measured_property=pKd data_value=7.44

Now look at this entry.
For the molecule O=C(O)CCC(NC(=O)NC(CCCCNC(=O)Cn1cc(CN(CC(=O)O)[C@@H]2CCCC[C@H]2N(CC(=O)O)CC(=O)O)nn1)C(=O)O)C(=O)O (mixture of isomers) , report pKd. 7.43
